- test_name: chemical genetic growth profiling, strain panel (AID 1159580);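 further: tested at 20 µM; growth read once vehicle control cultures reached saturation at 30 °C; 1 = growth at the plate median or of vehicle wells; lower values mean less growth of the strain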
- conditions_used: S. cerevisiae deletion strains, growth OD, locus YIL066C, strain RNR3, hits give low values
Hit rate of the full screen: of about 5,500 compounds, about 2,000 (36%) were called active. Inconclusive results (about 18%) are left out. This is one part of the list.
Assign normalized growth to each entry below.
Keep it simple and answer with nothing but the number.

Task: Quick check: normalized growth of CC1(C)C(O)CC(=O)C2(C)C1CC(O)C1(C)C2CCC2(C)C(c3ccoc3)OC(=O)C3OC321 (stereo not drawn) ?
Result: 0.995

Task: Now this one: COC1CC(O[C@H]2CC[C@]3(C=O)C4CC[C@]5(C)C(C6=CC(=O)OC6)CC[C@]5(O)C4CC[C@]3(O)C2)OC(C)C1O (stereo partly drawn)
Result: 1.05

Task: Now this one: C/C=C/CC(C)C(O)C1C(=O)NC(CC)C(=O)N(C)CC(=O)N(C)C(CC(C)C)C(=O)NC(C(C)C)C(=O)N(C)C(CC(C)C)C(=O)NC(C)C(=O)NC(C)C(=O)N(C)C(CC(C)C)C(=O)N(C)C(CC(C)C)C(=O)N(C)C(C(C)C)C(=O)N1C (stereo not drawn)
Result: 0.986

Data origin, for the record: PubChem BioAssay AID1159580
